Assay: S. cerevisiae growth inhibition in restrictive medium, OD615, pilot screen, restrictive growth control, yeast lifespan reduction project (AID 706);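 note: modified DeaD lifespan yeast strain shifted to restrictive glucose medium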
Settings: OD615, 48 h, at 10 µM, hits give high values
Calls of active or inactive are those of the source.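 Rule for the calls: active = growth inhibition above a set limit, 3 SD over mean compound inhibition, in both replicates (cut at about 43% in these data); inconclusive = above the limit in only one replicate; inactive = at or below the limit in both replicates.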
Please go through the items and note down their growth inhibition.

Here is how some molecules turned out for growth inhibition.
molecule=Cc1ccc(S(=O)(=O)N(CC(=O)N2CCC(C(N)=O)CC2)Cc2ccc(F)cc2)cc1 test_value="2.36% (inactive)"
molecule=CCOc1ccccc1NC(=O)C1CCN(S(=O)(=O)c2cccc3cccnc23)CC1 test_value="-4.09% (inactive)"
molecule=O=C(Cn1cc2c(n1)CCCC2)NCCCN1CCN(C2CCCCC2)CC1 test_value="9.3% (inactive)"
molecule=CC1(C)Cc2c(c(=S)nc(-c3ccccc3)n2CCCN2CCOCC2)CO1 test_value="6.05% (inactive)"
molecule=CCN1CCN(c2nc3c(c(=O)[nH]c(=O)n3C)n2CCSc2nc3ccccc3s2)CC1 test_value="-6% (inactive)"
molecule=COCCN1C=C(C(=O)OC)C(c2cc3c(cc2Br)OCO3)C(C(=O)OC)=C1 test_value="-14.6% (inactive)"

Quick batch: growth inhibition for everything below.
1. Cc1cc(=O)[nH]c(SCC(=O)NCCOc2ccccc2)n1
2. CCOC(=O)CCc1c(C)nc2cc(-c3ccc(F)cc3)[nH]n2c1=O
3. COc1ccccc1N1CCN(CC(O)c2ccc3cc[nH]c3c2)CC1 (centres undefined)
4. CCCOC(=O)c1[nH]c2c(c1C)C(=O)CC(c1cc(OC)c(OC)c(OC)c1)C2 (centres undefined)
5. CCC(C)NC(=O)c1cn(CC)c2ccc(S(=O)(=O)N(C)C)cc2c1=O (centres undefined)

["-1.72% (inactive)", "-4.2% (inactive)", "5.26% (inactive)", "-14.6% (inactive)", "14.4% (inactive)"]

* * *

Assay: H69AR cell proliferation blockers – human, duplicate replicates, primary screen (AID 580);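 note: 100% = mean luminescence of untreated wells and 0% = no signal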
Details: H69AR lung tumor cells viability, ATP luminescence, 72 h; at 10 µM
Activity calls are given as the source filed them.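 The calls were made as follows: active = viability at or under a set limit in both replicates, limit being median viability minus 3 SD (cut at about 48% in these data, passing the limit was not always enough); inconclusive = at or under the limit in just one replicate; inactive = at or above the limit in both replicates.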
Parameter call: string, one of active, inactive

These solved cases illustrate the format of a correct answer.
compound=Cc1nnc(NC(=O)CSc2cn(CCNC(=O)c3ccccc3)c3ccccc23)s1 answer_label=inactive
compound=Cc1ccc2oc(=O)c3cnn(CC(=O)N4CCCc5ccccc54)c3c2c1 answer_label=inactive
compound="CCSC1=C(C#N)C(c2ccccc2OC)CC(=O)N1 (stereo not drawn)" answer_label=inactive
compound=CCOc1ccc(NC(=O)CSc2nnc(COc3c(C)cccc3C)o2)cc1 answer_label=inactive
compound=COCCN(CCOC)Cc1c(C)[nH]c2ccccc2c1=O answer_label=inactive
compound=COc1cccc(-c2cc(C(F)(F)F)nc(NCc3ccco3)n2)c1 answer_label=inactive
compound="CC1CCc2nn(CC(=O)NCc3ccc4c(c3)OCO4)cc2C1 (stereo not drawn)" answer_label=inactive
compound=Cc1ccc(-c2noc(CN3CCN(c4ccccc4F)CC3)n2)cc1 answer_label=inactive
compound=CCOC(=O)c1[nH]c(C)c(C(=O)Nc2ccc(C)cc2C)c1C answer_label=active
compound="CC1CCc2nn(CC(=O)NCc3ccc(F)cc3)cc2C1 (stereo not drawn)" answer_label=inactive

Assay outcome for CC(=O)NCCc1nc2ccccc2[nH]1 : what was it?
inactive

Assay outcome for Oc1c(C(c2ccccc2)N2CCc3ccccc3C2)sc2ncnn12 (stereo not drawn) : what was it?
inactive

* * *

Please go through the items and note down their RAM network inhibition.
Assay: RAM signaling pathway blockade in yeast – S. cerevisiae, Pdr1DBD-CYC8 efflux-inhibited sensitized strain, primary screen (AID 1298);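 note: 0% = DMSO untreated cells without growth and 100% = 10 µM 1-NA-PP1 full growth; higher means more yeast growth rescued from 5-FOA killing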
Conditions: S. cerevisiae cbk1-as DSE1-URA3 strain, 5-FOA growth OD615, 2 d; at 50 µM; hits give high values
One number for each entry, in %.

Here is how some compounds turned out for RAM network inhibition.
compound="CC1CCCN(c2ncnc3c2cnn3-c2ccccc2)C1 (stereo not drawn)" test_value=4.59
compound="O=C(NC1CCCc2ccccc21)c1ccc(CNc2c(N3CCOCC3)c(=O)c2=O)cc1 (stereo not drawn)" test_value=6.53
compound=O=C(Nc1nc2ccccc2s1)c1ccc(Cl)s1 test_value=1.32
compound=O=C(Nc1cnccn1)c1cccs1 test_value=7.21
compound=CCOC(=O)N1CCC(Nc2ccc3nnc(-c4ccccc4)n3n2)CC1 test_value=2.57

Quick batch: RAM network inhibition for everything below.
1. CC(=NCC1CCNCC1)C1=C(O)CC(C)(C)CC1=O
2. CNC(=O)CN(c1ccc(C(C)C)cc1)S(C)(=O)=O
3. CCOCCCNC(=O)C(c1ccc(C)cc1)N(Cc1ccc2c(c1)OCO2)C(=O)c1cnccn1 (stereo not drawn)

[-1.02, 2.63, 5.34]

* * *

Assay: S. cerevisiae growth inhibition in restrictive medium, OD615, pilot screen, restrictive growth control, yeast lifespan reduction project (AID 706);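 note: modified DeaD lifespan yeast strain shifted to restrictive glucose medium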
Details: OD615, 48 h, at 10 µM, hits give high values
assay endpoint: growth inhibition (%)
Numbers only, in %.

Here is how some compounds turned out for growth inhibition.
compound="COc1ccc(C2N(c3ccc(OC)cc3)C(=O)C3CCCN32)cc1 (centres undefined)" test_value=2.04
compound=Nn1c(Cc2ccccc2F)nnc1SCC(=O)N1CC(=O)Nc2ccccc21 test_value=-7.2
compound=CC(C)c1nnc(NC(=O)C2CCCCC2)s1 test_value=0.755
compound=COc1ccc(C)cc1NC(=O)C1CCN(S(=O)(=O)c2cccc3cccnc23)CC1 test_value=-2.36
compound=Cc1occc1C(=O)N1CCN(Cc2ccccc2)CC1 test_value=-15.5

Quick batch: growth inhibition for everything below.
1. Cc1nc2sc(C(c3cccs3)N3CC(C)CC(C)C3)c(O)n2n1 (centres undefined)
2. O=C(CSc1nc2c(c(=O)n1-c1ccc(F)cc1)SCC2)NCc1ccco1
3. O=C(CN1CCN(Cc2ccccc2F)C1=O)NCc1cccnc1
4. Nc1nc2n(n1)C(c1cccc(Br)c1)CC(c1ccccc1)N2 (centres undefined)

1. -10.1
2. 14.1
3. 6.51
4. 12.7

* * *

Please go through the items and note down their growth inhibition.
Test: S. cerevisiae growth inhibition in restrictive medium, OD615, pilot screen, restrictive growth control, yeast lifespan reduction project (AID 706);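 note: modified DeaD lifespan yeast strain shifted to restrictive glucose medium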
Settings: OD615, 48 h, at 10 µM, hits give high values
Active and inactive are the calls of the source.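 How the source made its calls: active means growth inhibition above a set limit, 3 SD over mean compound inhibition, in both replicates (cut at about 43% in these data); inconclusive means above the limit in only one replicate; inactive means at or below the limit in both replicates.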

molecule=CCOC(=O)c1cnc2c(Cl)cc(Cl)cc2c1NCCOCCO test_value="-11.6% (inactive)"
molecule="O=C(NC(C(=O)c1ccccc1)N1CCOCC1)c1ccccc1 (stereo not drawn)" test_value="13.8% (inactive)"

Now look at this one.
Consider the molecule shown here: O=C(O)CCCC(=O)Nc1c(F)c(F)c(F)c(F)c1F What is its recorded growth inhibition?
-6.27% (inactive)

* * *

Test: viability of PTEN-null HCT116 cells – cell-based, HCT116 clonal line, CellTiter-Glo, pilot screen (AID 824);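 note: 0% = 20 µM Hyamine control and 100% = vehicle cell control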
Conditions: HCT116 PTEN-deleted viability, 60 h, at 10 µM
Inconclusive results are not listed. The source made the active and inactive calls.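 How the source made its calls: active means viability at or below 27.92% in each of two runs, the all-compound median minus 4 SD; inconclusive means no clear call, values can overlap the other calls; inactive means the rest.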
Parameter call: string, one of 1.0 (active), 0.0 (inactive)

molecule="CCOC(=O)C(CC)(CCC(=O)O)c1csc(N)n1 (stereo not given)" answer_label=0.0

Assay outcome for CCOC(=O)N1CCN(c2nc(=S)n(-c3ccccc3)c(C)c2C(C)=O)CC1 : what was it?
0.0

Assay outcome for COc1ccc(S(=O)(=O)N2CCN(Cc3c[nH]c4ccccc34)CC2)cc1 : what was it?
0.0

Assay outcome for O=C(C1CCN(c2nnc(-n3cccc3)s2)CC1)N1CCOCC1 : what was it?
0.0

Assay outcome for COC(=O)c1nnc(-c2ccccc2)c(-c2ccccc2)n1 : what was it?
0.0

Assay outcome for CCN1CCN(C(c2cccs2)C(C)NC(=O)c2ccccc2)CC1 (stereo not given) : what was it?
0.0

Assay outcome for CCOC(=O)/C(C#N)=C(/C)c1ccc(OC)cc1 : what was it?
0.0

Assay outcome for COc1ccc(C2C(C(C)=O)=C(C)N=c3s/c(=C/c4ccc5c(c4)OCO5)c(=O)n32)cc1 (stereo not given) : what was it?
0.0

Assay outcome for CCOC(=O)C1=C(C)Nc2nnnn2C1c1ccc(OC)c(Br)c1 (stereo not given) : what was it?
0.0

Assay outcome for Cc1cc(-c2nc3ncccc3o2)ccc1NC(=O)CC(C)C : what was it?
0.0

* * *

Assay: yeast transport mutant growth inhibition pilot in 384-well plates, post-Golgi transport modulator project (AID 636)
Conditions: absorbance 615 nm, about 18 h, hits give high values
assay endpoint: inhibition (%)
One number for each entry, in %.

Quick batch: inhibition for everything below.
1. Cc1c(-n2c(CN3C(=O)c4ccccc4C3=O)nc3ccccc3c2=O)c(=O)n(-c2ccccc2)n1C
2. O=C1CN(c2nc3ccccc3n3cnnc23)CC(=O)N1CCc1ccccc1
3. CC1=C(C(=O)OC(C)C)C(c2ccccn2)n2ncnc2N1 (stereo not given)
4. Cc1cnc(NC(=O)CSc2nnc(COc3c(C)cccc3C)o2)s1
5. CC1Cc2nc(SCC(=O)Nc3nccs3)n(C)c(=O)c2S1 (stereo not given)

1. -1.76
2. -0.38
3. -3.2
4. -5.33
5. -5.07

Quick batch: inhibition for everything below.
1. CN(C)CCCN1C(=O)c2oc3ccc(Cl)cc3c(=O)c2C1c1cccnc1 (stereo not given)
2. CN(C)CCN1C(=O)C(O)=C(C(=O)c2cc3ccccc3o2)C1c1ccc(N(C)C)cc1 (stereo not given)
3. COC(=O)C1CCN(C(=O)CSc2nnc(-c3ccncc3)o2)CC1
4. COc1ccc(NC(=O)CN(c2ccc(C(C)C)cc2)S(=O)(=O)c2c(C)noc2C)cc1OC
5. O=C(NC1CCN(Cc2ccccc2)CC1)C1CCN(S(=O)(=O)c2cccc3cccnc23)CC1
6. CCCCOCCCNC(=O)COc1ccccc1
7. COC(=O)C1(C(F)(F)F)N=C2Sc3ccccc3N2C(N2CCOCC2)=N1 (stereo not given)

-2.93
-3.47
1.43
1.41
-0.13
-5.54
-5.73
